Dear all, this message contains log10 of IC50 results, target or system bovine-milk-derived xanthine oxidase (XOD) (Bos taurus).
Would you kindly interpret these values as log10 of IC50 expressed in nM?

Example cases with answers are listed next.
INSERT INTO results (compound, reported) VALUES
  ('O=[N+]([O-])c1ccc(C=NNc2nc(=S)[nH]c3[nH]cnc23)cc1 [Compound 17c]', 3.07),
  ('CN(C)c1ccc(C=NNc2nc(=S)[nH]c3[nH]cnc23)cc1 [Compound 17b]', 2.94);

*Q* Request: log10 of IC50, test system bovine-milk-derived xanthine oxidase (XOD) (Bos taurus), entry O=c1[nH]c2[nH]cnc2c2nnc(-c3ccc(Cl)cc3)n12 [Compound 11e]
*A* 2.19

*Q* Request: log10 of IC50, test system bovine-milk-derived xanthine oxidase (XOD) (Bos taurus), entry Fc1ccc(C=NNc2nc(=S)[nH]c3[nH]cnc23)cc1 [Compound 17a]
*A* 2.53

*Q* Request: log10 of IC50, test system bovine-milk-derived xanthine oxidase (XOD) (Bos taurus), entry COc1ccc(C=NN(C)c2nc(=S)[nH]c3[nH]cnc23)cc1 [Compound 19a]
*A* 2.83

*Q* Request: log10 of IC50, test system bovine-milk-derived xanthine oxidase (XOD) (Bos taurus), entry COc1ccc(-c2nnc3c4nc[nH]c4[nH]c(=S)n23)cc1
*A* 3.48

*Q* Request: log10 of IC50, test system bovine-milk-derived xanthine oxidase (XOD) (Bos taurus), entry O=c1[nH]c2[nH]cnc2c2nnc(-c3ccccc3)n12 [Compound 11c]
*A* 3.41

*Q* Request: log10 of IC50, test system bovine-milk-derived xanthine oxidase (XOD) (Bos taurus), entry COc1ccc(C=NNc2nc(Cl)nc3[nH]cnc23)cc1
*A* 2.90

*Q* Request: log10 of IC50, test system bovine-milk-derived xanthine oxidase (XOD) (Bos taurus), entry CN(N=Cc1ccc(F)cc1)c1nc(=S)[nH]c2[nH]cnc12 [Compound 19b]
*A* 2.82

*Q* Request: log10 of IC50, test system bovine-milk-derived xanthine oxidase (XOD) (Bos taurus), entry S=c1nc(NN=Cc2ccc3c(c2)OCO3)c2nc[nH]c2[nH]1 [Compound 17e]
*A* 2.37
